# System: saphenous vein of piglet
# Assay protocol: PGE2-induced dilation of saphenous vein rings, organ bath assay
# Parameters: species or system Yorkshire piglets
# Particulars: 1 μM peptides, 1 μM PGE2; rings pre-constricted with U46619; average of 2-8 experiments
Square brackets hold non-standard residues; d marks the D form. Ends that are not written are not given here. Bip = N[C@@H](Cc1ccc(-c2ccccc2)cc1)C(=O)O; Dip = N[C@H](C(=O)O)C(c1ccccc1)c1ccccc1; hPhe = N[C@@H](CCc1ccccc1)C(=O)O
Mark 0.0 for % blockade of PGE2 induced vasodilation values under 60%, and 1.0 for everything at or above.

Challenge: Is % blockade of PGE2 induced vasodilation for 7 ([Bip]TSYEAL) [compound 7] at or above 60%?
Response given: 1.0

Challenge: Is % blockade of PGE2 induced vasodilation for 9 ([hPhe]TSYEAL) [compound 9] at or above 60%?
Response given: 0.0

Challenge: Is % blockade of PGE2 induced vasodilation for 3 (IFTSAECL; Peptide inhibitor of prostaglandin E2 receptor subtype EP4) [compound 3] at or above 60%?
Response given: 0.0

Challenge: Is % blockade of PGE2 induced vasodilation for 2 (IFASYECL; Peptide inhibitor of prostaglandin E2 receptor subtype EP4) [compound 2] at or above 60%?
Response given: 0.0

Challenge: Is % blockade of PGE2 induced vasodilation for 6 (IFTSYDCL; Peptide inhibitor of prostaglandin E2 receptor subtype EP4) [compound 6] at or above 60%?
Response given: 0.0

Challenge: Is % blockade of PGE2 induced vasodilation for 1 (IFTSYECL; Peptide inhibitor of prostaglandin E2 receptor subtype EP4) [compound 1] at or above 60%?
Response given: 0.0

Challenge: Is % blockade of PGE2 induced vasodilation for 8 ([Dip]TSYEAL) [compound 8] at or above 60%?
Response given: 1.0
